assay: Acute toxicity (general statements, comparison with nizofenone); conditions: in vivo, po; per os; species and method not stated at this place
quantity-name: LD50

GET /value?item= CCN(CC)Cc1nccn1-c1ccc([N+](=O)[O-])cc1C(=O)c1ccccc1Cl.O=C(O)/C=C/C(=O)O [nizofenone] &field=LD50 returns 450 to 675 mg/kg
